Data origin: a collection of fitness landscapes (doi:10.1126/science.1257360)

B1: PhoQ; a variant is named by its letters at X, in order, P23837 (parent)
chain: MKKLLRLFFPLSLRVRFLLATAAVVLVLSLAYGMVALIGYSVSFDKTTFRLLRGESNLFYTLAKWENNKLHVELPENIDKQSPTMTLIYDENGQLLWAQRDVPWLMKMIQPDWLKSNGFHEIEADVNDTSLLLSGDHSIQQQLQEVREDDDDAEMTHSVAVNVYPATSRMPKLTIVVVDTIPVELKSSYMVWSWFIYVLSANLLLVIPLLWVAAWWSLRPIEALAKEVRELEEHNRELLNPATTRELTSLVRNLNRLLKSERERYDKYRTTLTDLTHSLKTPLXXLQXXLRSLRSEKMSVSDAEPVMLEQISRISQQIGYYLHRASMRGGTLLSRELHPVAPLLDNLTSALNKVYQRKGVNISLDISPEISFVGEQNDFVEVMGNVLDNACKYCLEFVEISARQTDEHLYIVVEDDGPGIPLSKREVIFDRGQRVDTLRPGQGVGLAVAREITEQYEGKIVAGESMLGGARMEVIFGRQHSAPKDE

Variants of: B1
Test: enrichment ratio after two sorts for PhoP signalling (ratio (wild type AVST 3.29)); higher = more functional
Conditions: with PhoP (E. coli)
In all, about 140,000 sequences were measured (“enrichment ratio after two sorts for PhoP signalling”: median about 0, highest 2% from about 11 on). What follows is part of a selection rich in the highest values, with near analogues and random picks from the rest.
VALUE_KIND: enrichment ratio

SCQM 30.8
YMKP ≤ 0.25
KLSI ≤ 0.25

In the following, a different variant is considered.
Query: State its enrichment ratio for this variant: `PILN`
Reply: ≤ 0.25
